- study.system: human Cav2.2 (composed of the subunits α1, β3 and α2δ) (Homo sapiens)
- Sequence (Q00975 whole entry): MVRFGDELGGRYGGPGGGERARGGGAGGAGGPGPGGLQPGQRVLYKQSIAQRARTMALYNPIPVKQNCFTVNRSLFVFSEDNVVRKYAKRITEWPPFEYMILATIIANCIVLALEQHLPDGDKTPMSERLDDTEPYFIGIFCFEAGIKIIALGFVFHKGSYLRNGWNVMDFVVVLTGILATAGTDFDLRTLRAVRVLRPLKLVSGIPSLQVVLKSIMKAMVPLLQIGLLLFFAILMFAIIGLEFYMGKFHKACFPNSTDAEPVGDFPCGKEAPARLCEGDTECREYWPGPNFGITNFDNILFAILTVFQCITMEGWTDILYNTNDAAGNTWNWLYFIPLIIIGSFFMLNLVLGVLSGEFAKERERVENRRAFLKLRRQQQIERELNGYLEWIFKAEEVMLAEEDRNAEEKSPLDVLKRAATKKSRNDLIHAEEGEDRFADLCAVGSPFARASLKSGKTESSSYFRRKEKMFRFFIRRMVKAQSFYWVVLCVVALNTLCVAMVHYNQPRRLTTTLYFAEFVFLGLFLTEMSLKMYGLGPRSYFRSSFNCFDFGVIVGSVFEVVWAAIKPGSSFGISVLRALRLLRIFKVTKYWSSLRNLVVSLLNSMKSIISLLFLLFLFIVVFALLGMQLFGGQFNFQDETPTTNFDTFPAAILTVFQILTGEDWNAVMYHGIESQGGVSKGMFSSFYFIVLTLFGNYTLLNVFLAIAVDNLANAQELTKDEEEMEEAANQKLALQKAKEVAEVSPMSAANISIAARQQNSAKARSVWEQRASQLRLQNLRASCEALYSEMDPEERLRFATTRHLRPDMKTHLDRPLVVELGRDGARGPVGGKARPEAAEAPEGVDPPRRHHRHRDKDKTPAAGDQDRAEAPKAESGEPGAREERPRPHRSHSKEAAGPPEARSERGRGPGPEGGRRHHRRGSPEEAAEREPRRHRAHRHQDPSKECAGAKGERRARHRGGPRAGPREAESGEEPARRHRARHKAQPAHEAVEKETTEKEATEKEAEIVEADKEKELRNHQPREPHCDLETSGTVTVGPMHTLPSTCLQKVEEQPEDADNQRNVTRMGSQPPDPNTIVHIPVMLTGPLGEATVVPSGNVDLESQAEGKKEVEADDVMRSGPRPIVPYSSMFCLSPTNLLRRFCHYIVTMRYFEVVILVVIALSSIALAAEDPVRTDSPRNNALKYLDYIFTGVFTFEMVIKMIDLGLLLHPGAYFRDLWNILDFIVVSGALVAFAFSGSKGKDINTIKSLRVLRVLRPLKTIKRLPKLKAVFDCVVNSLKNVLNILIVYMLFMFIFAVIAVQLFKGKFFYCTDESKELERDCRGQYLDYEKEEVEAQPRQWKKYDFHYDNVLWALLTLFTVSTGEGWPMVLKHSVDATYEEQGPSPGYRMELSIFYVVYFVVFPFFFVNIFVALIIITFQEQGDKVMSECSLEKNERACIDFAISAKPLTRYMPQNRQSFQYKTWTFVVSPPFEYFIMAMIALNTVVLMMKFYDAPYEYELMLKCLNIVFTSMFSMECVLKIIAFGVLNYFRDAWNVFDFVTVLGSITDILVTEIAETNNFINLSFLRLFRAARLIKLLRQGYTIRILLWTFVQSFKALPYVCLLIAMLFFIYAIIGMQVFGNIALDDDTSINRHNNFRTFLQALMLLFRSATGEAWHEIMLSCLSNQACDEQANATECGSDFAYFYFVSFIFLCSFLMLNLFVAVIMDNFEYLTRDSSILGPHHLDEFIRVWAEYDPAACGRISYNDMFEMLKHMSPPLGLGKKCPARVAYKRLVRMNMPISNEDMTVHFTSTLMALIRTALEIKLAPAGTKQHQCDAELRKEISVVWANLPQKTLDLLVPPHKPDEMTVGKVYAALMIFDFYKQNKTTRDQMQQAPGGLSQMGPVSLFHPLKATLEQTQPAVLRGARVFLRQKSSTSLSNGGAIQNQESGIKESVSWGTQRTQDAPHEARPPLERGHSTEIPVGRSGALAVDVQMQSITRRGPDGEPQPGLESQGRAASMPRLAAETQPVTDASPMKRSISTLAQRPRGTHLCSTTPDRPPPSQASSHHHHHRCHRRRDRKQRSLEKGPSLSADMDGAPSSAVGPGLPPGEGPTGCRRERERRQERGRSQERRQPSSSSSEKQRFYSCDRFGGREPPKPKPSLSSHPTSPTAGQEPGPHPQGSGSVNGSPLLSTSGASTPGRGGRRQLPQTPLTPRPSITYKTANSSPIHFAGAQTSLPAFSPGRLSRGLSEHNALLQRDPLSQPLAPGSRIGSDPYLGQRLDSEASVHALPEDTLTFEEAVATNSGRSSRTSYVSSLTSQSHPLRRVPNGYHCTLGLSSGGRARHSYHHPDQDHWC
- Sequence (P54284 whole entry partner): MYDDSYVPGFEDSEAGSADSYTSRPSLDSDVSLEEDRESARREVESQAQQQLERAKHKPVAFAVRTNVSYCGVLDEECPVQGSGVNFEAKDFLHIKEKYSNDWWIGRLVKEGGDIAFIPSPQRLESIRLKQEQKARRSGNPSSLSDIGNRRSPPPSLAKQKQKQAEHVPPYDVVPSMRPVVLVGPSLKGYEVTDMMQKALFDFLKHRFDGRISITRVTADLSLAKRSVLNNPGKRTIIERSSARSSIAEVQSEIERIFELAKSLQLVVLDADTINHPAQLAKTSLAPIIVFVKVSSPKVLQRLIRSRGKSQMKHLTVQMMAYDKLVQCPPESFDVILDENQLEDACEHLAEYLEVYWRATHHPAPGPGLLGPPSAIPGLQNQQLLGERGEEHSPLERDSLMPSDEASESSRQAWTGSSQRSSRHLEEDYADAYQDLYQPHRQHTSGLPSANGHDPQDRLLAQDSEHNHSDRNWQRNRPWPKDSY
- Sequence (P54289 25-946 partner limits assumed): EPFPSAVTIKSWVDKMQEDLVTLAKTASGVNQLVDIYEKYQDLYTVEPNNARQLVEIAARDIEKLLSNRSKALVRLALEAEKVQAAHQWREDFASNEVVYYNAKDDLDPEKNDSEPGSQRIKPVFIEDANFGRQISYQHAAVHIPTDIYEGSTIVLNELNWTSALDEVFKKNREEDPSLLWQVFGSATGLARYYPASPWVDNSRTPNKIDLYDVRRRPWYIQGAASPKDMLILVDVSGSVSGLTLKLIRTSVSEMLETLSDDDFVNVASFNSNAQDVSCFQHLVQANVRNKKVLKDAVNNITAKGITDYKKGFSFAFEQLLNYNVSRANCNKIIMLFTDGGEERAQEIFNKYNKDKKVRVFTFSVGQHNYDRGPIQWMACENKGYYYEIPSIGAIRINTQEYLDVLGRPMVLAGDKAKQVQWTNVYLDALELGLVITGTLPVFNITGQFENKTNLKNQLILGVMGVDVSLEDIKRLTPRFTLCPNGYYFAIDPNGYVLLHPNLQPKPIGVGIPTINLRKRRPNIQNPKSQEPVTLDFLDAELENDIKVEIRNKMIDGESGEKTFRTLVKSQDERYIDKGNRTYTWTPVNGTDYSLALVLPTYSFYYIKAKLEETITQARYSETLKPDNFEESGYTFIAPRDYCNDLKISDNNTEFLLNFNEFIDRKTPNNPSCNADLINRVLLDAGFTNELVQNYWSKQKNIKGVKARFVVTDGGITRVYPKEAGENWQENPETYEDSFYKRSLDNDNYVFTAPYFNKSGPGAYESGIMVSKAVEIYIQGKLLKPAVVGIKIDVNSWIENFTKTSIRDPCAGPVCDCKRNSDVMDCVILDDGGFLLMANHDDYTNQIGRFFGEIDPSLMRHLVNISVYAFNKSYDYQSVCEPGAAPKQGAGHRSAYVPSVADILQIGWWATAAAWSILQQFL
- Sequence (P54289 947-1103 partner limits assumed): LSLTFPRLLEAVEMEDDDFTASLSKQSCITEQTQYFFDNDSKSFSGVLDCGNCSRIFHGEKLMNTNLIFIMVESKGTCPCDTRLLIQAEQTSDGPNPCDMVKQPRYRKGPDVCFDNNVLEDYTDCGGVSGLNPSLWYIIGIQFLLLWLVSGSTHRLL
- test.details: FLIPR assay (TSA201 cells stably transfected with human Cav2.2 and human Kir2.3, FLUO-4 Ca2+ signal, KCl depolarization)
- assay.setup: 70 mM KCl depolarization, average value
assay.metric: IC50 (µM)
Form entry: value (µM) — number only.

Example compounds with recorded IC50:
compound | IC50, µM
CC(C)(C)C(=O)N(Cc1ccc(Cl)nc1)c1ccc(F)cc1 | 10.1
CC(C)(C)C(=O)N(Cc1csc(-c2ccccc2F)n1)c1ccc(F)cc1 | 7.9
CN1CCN(c2ccc(CN(C(=O)NC(C)(C)C)c3ccc(F)cc3)cn2)CC1 | 30
CC(C)(C)C(=O)N(Cc1ccc(N2CCCC2)nc1)c1ccc(F)cc1 | 8.2
CCN(c1nc(CN(C(=O)[C@@H]2CCC(=O)N2)c2ccc(F)cc2)cs1)C1CC1 | 19.7
CC(C)(C)C(=O)N(Cc1csc(N2CCN(Cc3ccccc3)CC2)n1)c1ccc(F)cc1 | 9.3
CC1CN(c2nc(CN(C(=O)C(C)(C)C)c3ccc(F)cc3)cs2)CC(C)O1 (centres unmarked) | 3.4

Please find the next compound below.
Query: Which IC50 value is on record for `CCN(c1nc(CN(C(=O)C2CCCCC2)C2CCCCC2)cs1)C1CC1` ?
Result: 3.3
